The origin of these recorded values is the supplement of paper PMC10567573.

Give measured protein stability index for each item. Keep answers brief.
B1: TRIM39 (parent)
chain: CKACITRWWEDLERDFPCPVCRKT

# Variants of: B1
# Assay Name: protein stability index of a GFP-peptide fusion (GPS, HEK-293T) (PSI 1-6); higher = more stable;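 further: lentivirally expressed fusions sorted by FACS into six bins by GFP to DsRed ratio, PSI derived from sequencing read proportions per bin multiplied by bin number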
# Condition Summary: c terminus: a fixed tail appended
Lab note: write the figure by itself, no unit.

Value of protein stability index reported for the variant CKACITRWWEDLERDFPCPVCFKT [R22F] is 3.4

Per the records, this variant ( CKACITRWWEDLERDFPCGVCRKT [P19G] ) has protein stability index equal to 2.86

Data point: CKACITRWDEDLERDFPCPVCRKT [W9D] ; protein stability index = 4.55

The variant listed as CKACITRWWEDWERDFPCPVCRKT [L12W] has a reported protein stability index of 3.87

Per the records, this variant ( CKACITRWWEDLERDMPCPVCRKT [F16M] ) has protein stability index equal to 3.99

The variant listed as CKACITLWWEDLERDFPCPVCRKT [R7L] shows protein stability index equal to 3.58

variant CKDCITRWWEDLERDFPCPVCRKT [A3D] , protein stability index observed: 4.04

Notebook: CKACITRWWEDLERDFPCPVCRQT [K23Q] , protein stability index read as 4.58

Reported protein stability index ( CKACITRWWEDLERAFPCPVCRKT [D15A] ) = 3.32

Consider CKACIIRWWEDLERDFPCPVCRKT [T6I] . Its measured protein stability index is 3.01

For record CKACITGWWEDLERDFPCPVCRKT [R7G] the listed protein stability index is 4.08
